Values compiled from patent US20140308287A1.

Assign pEC50 to each entry below.
# tgt: T1, human ErbB3-Fc (R&D Systems) (human, UniProt P21860 20-643)
# T1 construct: Bought protein; also called wild-type ErbB3-Fc fusion; immobilized ErbB3; not shown: Fc part of the bought fusion protein; not described
# procedure.summary: ELISA on ErbB3-Fc, soluble monovalent Sab (Example 42)
Worth noting: pEC50 values are minus log10 of concentrations stated in mol/L.

## Task Assign pEC50 to the following record: 2995-H07 (other) VH: EVQLLESGGGLVQPGGSLRLSCAASGFTFSDYWMNWVRQAPGKGLEWVALISNNGSYTYYADSVKGRFTISRDNSKNTLYLQMNSLRAEDTAVYYCAKDNFILLNSWFDYWGQGTLVTVSS light: QPVLHQPPAMSSALGTTIRLTCTLRNDHDIGVYSVYWYQQRPGHPPRFLLRYFSQSDKSQGPQVPPRFSGSKDVARNRGYLSISELQPEDEAMYYCAMGARSSVTHVFGSGTQLTVLSQPKATPSVTLFPPSSEELQANKATLVCLMNDFYPGILTVTWKADGTPITQGVEMTTPSKQSNNKYAASSYLSLTPEQWRSRRSYSCQVMHEGSTVEKTVAPAECS
## Result 10.60

## Task Please list pEC50 recorded for the binder 2995-A08 (other) VH: EVQLLESGGGLVQPGGSLRLSCAASGFTFSSYWMHWVRQAPGKGLEWVAGISNGGSIIYYADSVKGRFTISRDNSKNTLYLQMNSLRAEDTAVYYCAKDNFILLNSWFDYWGQGTLVTVSS light: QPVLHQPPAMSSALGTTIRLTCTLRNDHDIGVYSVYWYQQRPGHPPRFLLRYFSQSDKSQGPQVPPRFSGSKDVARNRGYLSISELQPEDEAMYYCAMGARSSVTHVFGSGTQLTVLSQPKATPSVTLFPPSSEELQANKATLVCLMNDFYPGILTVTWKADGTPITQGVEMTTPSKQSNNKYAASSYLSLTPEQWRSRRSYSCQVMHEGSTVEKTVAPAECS
## Result 10.70
